assay: JHH-DIPG-1 glioma cell viability, MIPE5.0 library, CellTiter-Glo luminescence, qHTS (AID 1347067); conditions: JHH-DIPG-1 glioma viability, CellTiter-Glo ATP luminescence;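 also: cells exposed to compound for 48 hours before readout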
Results filed as inconclusive are left out. Calls of active or inactive are those of the source. The limit is not given here; nearly all actives have AC50 up to about 26 µM.
Possible outcomes: active, inactive

mol smiles	assigned category
CN(C)C/C=C/C(=O)Nc1ccc(C(=O)Nc2cccc(Nc3ncc(Cl)c(-c4c[nH]c5ccccc45)n3)c2)cc1	active
CN(C)CC(C)(C)CNc1nn2c(-c3ccccc3)nnc2cc1C1CCC1	inactive
CS(=O)(=O)c1ccc([C@@H](CC2CCCC2)C(=O)Nc2nccs2)cc1	inactive
Nc1nccc(-c2c(-c3ccc(F)cc3)ncn2C2CCCCC2)n1	inactive
COc1cccc([C@@H](C)NCCCc2ccccc2Cl)c1	inactive
CC(C)c1nn(-c2c(Cl)cccc2Cl)c2nc(Cc3ccc(OCCO)cc3)[nH]c(=O)c12	active
O=c1c(-c2ccc(O)cc2)coc2cc(O[C@@H]3O[C@H](CO)[C@@H](O)[C@H](O)[C@H]3O)ccc12	inactive
CN1CCN(C(=O)c2ccc3cc(CCNc4ncnc5ccc(C#N)cc45)ccc3c2)CC1	active
CN1CCN(c2ncc(-c3cc(Cl)cc(Cl)c3Cl)c(N)n2)CC1	inactive
CN1CCC(COc2cnc(-c3cccc(Cn4nc(-c5cccc(C#N)c5)ccc4=O)c3)nc2)CC1	active
CONC(=O)Nc1ccc(-c2sc3c(c2CN(C)C)c(=O)n(-c2ccc(OC)nn2)c(=O)n3Cc2c(F)cccc2F)cc1	inactive
CC[C@@H](C)[C@H](NC(=O)[C@H](CC1CCCCC1)NC(=O)c1ccno1)C(=O)N1CCC2(CCc3ccccc32)CC1	inactive
C[C@@H]1N=C(N)NC(N(C)C)=N1	inactive
CC(C)NCCCn1c(Sc2cc(Cl)cc(Cl)c2)nc2c(N)ncnc21	inactive
Cn1cc(/C=C/C(=O)c2cccc(F)c2)cc1/C=C/C(=O)NO	active
CN[C@@H](C)C(=O)N[C@H]1CCCC[C@H]2CC[C@@H](C(=O)N[C@@H](c3ccccc3)c3cn(CCCCc4ccc(CCCCn5cc([C@@H](NC(=O)[C@@H]6CC[C@@H]7CCCC[C@H](NC(=O)[C@H](C)NC)C(=O)N76)c6ccccc6)nn5)cc4)nn3)N2C1=O	inactive
Cc1ccc([N+](=O)[O-])cc1S(=O)(=O)N(C)/N=C/c1cnc2ccc(Br)cn12	active
CC(=O)c1ccc2c(c1)c1cc(C(C)=O)ccc1n2CCNC(C)C	active

Recorded values, source PubChem BioAssay.
